- Tgt: variant enzyme N77A of undecaprenyl diphosphate synthase (Micrococcus luteus, UniProt O82827, N77A)
- Construct: made in house; host or cells: E. coli; site-directed mutagenesis of pET22b/MLU-UPS
- Sequence (O82827 whole entry N77A): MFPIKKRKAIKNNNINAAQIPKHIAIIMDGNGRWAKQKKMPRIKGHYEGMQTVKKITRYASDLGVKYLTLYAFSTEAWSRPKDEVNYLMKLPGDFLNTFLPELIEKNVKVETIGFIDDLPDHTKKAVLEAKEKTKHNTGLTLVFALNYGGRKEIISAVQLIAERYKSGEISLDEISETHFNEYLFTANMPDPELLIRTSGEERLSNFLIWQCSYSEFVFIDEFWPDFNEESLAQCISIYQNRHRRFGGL
- Assay method text: Relative activity of variant enzyme N77A on initiating substrates
- Assay type: biochemical, Micrococcus luteus B-P 26
- Condition details: index, activity of wild-type enzyme on same initiating substrate as 100; 12.5 μM initiating substrate, 1 hour, 37° C.
Readout kind: Relative activity
Form: value (number only, do not type unit).

>>> value_observed("CCCCC(OC)/C(C)=C/CC/C(C)=C/COP(=O)(O)OP(=O)(O)O (centres unmarked)")
319
>>> value_observed("CCC(O)CC/C(C)=C/CC/C(C)=C/COP(=O)(O)OP(=O)(O)O [Compound of formula (R)]")
254

(Q) In one line, give reported Relative activity of the entry CC[C@H](O)CC/C(C)=C/CC/C(C)=C/COP(=O)(O)OP(=O)(O)O .
(A) 208

(Q) Given the compound CCCSC/C(C)=C/CC/C(C)=C/COP(=O)(O)OP(=O)(O)O , write its reported Relative activity.
(A) 127

(Q) Using the record for CCCCC(O)/C(C)=C/CC/C(C)=C/COP(=O)(O)OP(=O)(O)O (centres unmarked) , state its measured Relative activity.
(A) 234

(Q) Quote Relative activity reported for C/C(=C\COP(=O)(O)OP(=O)(O)O)CC/C=C(\C)COCc1ccccc1 please.
(A) 112

(Q) Indicate its recorded Relative activity; the compound in question is COCOC/C(C)=C/CC/C(C)=C/COP(=O)(O)OP(=O)(O)O
(A) 162

(Q) In one line, give reported Relative activity of the entry CC[C@@H](O)CC/C(C)=C/CC/C(C)=C/COP(=O)(O)OP(=O)(O)O [Compound of formula (E)] .
(A) 396

====

Reported Relative activity values for the following compounds.
- Tgt: variant enzyme N31A of undecaprenyl diphosphate synthase (Micrococcus luteus, UniProt O82827, N31A)
- Construct: made in house; host or cells: E. coli; site-directed mutagenesis of pET22b/MLU-UPS
- Sequence (O82827 whole entry N31A): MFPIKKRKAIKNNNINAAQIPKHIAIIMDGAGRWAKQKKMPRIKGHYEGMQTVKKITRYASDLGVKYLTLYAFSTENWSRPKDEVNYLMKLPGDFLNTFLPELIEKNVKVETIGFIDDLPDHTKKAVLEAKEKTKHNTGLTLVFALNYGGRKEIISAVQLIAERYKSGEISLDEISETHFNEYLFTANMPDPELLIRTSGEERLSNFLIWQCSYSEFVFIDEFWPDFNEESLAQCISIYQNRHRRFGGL
- Assay method text: Relative activity of variant enzyme N31A on initiating substrates
- Format: biochemical, Micrococcus luteus B-P 26
- Condition details: index, activity of wild-type enzyme on same initiating substrate as 100; 12.5 μM initiating substrate, 1 hour, 37° C.
// return just the number, without any unit appended

Check out these entries, answers already filled in.
>>> value_observed("COCOC/C(C)=C/CC/C(C)=C/COP(=O)(O)OP(=O)(O)O")
152
>>> value_observed("CCCCC(OC)/C(C)=C/CC/C(C)=C/COP(=O)(O)OP(=O)(O)O (centres unmarked)")
116
>>> value_observed("CCC(CC/C(C)=C/CC/C(C)=C/COP(=O)(O)OP(=O)(O)O)C(C)=O [Compound of formula (S)]")
116
>>> value_observed("CCC(O)CC/C(C)=C/CC/C(C)=C/COP(=O)(O)OP(=O)(O)O [Compound of formula (R)]")
200
>>> value_observed("CC[C@H](O)CC/C(C)=C/CC/C(C)=C/COP(=O)(O)OP(=O)(O)O")
179

(Q) Input CCCCC(O)/C(C)=C/CC/C(C)=C/COP(=O)(O)OP(=O)(O)O (centres unmarked) , output reported Relative activity.
(A) 111

(Q) Specify measured Relative activity for CC[C@@H](O)CC/C(C)=C/CC/C(C)=C/COP(=O)(O)OP(=O)(O)O [Compound of formula (E)] .
(A) 222

(Q) Identify measured Relative activity corresponding to CCCSC/C(C)=C/CC/C(C)=C/COP(=O)(O)OP(=O)(O)O
(A) 149

====

// reported Relative activity (%) per item
- Tgt: Sulfolobus acidocaldarius-derived geranylgeranyl diphosphate synthase (Sulfolobus acidocaldarius)
- Construct: made in house; host or cells: E. coli BL21 (DE3)
- Sequence (P39464 whole entry): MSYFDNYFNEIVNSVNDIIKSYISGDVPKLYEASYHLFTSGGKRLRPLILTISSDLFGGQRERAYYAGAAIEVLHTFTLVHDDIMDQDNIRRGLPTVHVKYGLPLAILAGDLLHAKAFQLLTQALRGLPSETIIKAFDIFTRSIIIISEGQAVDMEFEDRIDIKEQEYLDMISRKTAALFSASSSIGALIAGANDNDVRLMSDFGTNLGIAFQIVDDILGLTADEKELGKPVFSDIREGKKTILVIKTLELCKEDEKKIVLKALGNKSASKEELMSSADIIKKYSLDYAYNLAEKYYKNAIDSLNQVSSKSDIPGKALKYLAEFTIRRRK
- Assay method text: Relative activity of geranylgeranyl diphosphate synthase on initiating substrates
- Format: biochemical
- Condition details: activity of the enzyme on geranyl diphosphate as 100; 12.5 μM initiating substrate, pH 5.8, 1 hour, 55° C.
# unit: % | format: bare number

>>> value_observed("CC(C)=CCC/C(C)=C/CC/C=C/COP(=O)(O)OP(=O)(O)O [Initiating substrate 3]")
0.6
>>> value_observed("C/C=C/COP(=O)(O)OP(=O)(O)O [Initiating substrate 1, 2E-butenyl diphosphate]")
0.4
>>> value_observed("CC(C)=CCC/C(C)=C/CC/C(C)=C/CC/C=C/COP(=O)(O)OP(=O)(O)O [Initiating substrate 4]")
0.8

(Q) Please give the documented Relative activity (%) of CC(C)=CCC/C=C/COP(=O)(O)OP(=O)(O)O [Initiating substrate 2, 7-methyl-octa-2E,6E-dienyl diphosphate]
(A) 0.4

====

Recorded measurements of Relative activity, one per entry
- Tgt: variant enzyme F95A of undecaprenyl diphosphate synthase (Micrococcus luteus, UniProt O82827, F95A)
- Construct: made in house; host or cells: E. coli; site-directed mutagenesis of pET22b/MLU-UPS
- Sequence (O82827 whole entry F95A): as the sequence (O82827 whole entry N77A) above, with A77N, F95A counted along it
- Assay method text: Relative activity of variant enzyme F95A on initiating substrates
- Format: biochemical, Micrococcus luteus B-P 26
- Condition details: index, activity of wild-type enzyme on same initiating substrate as 100; 12.5 μM initiating substrate, 1 hour, 37° C.

// solved cases for Relative activity follow
>>> value_observed("CCC(CC/C(C)=C/CC/C(C)=C/COP(=O)(O)OP(=O)(O)O)C(C)=O [Compound of formula (S)]")
163
>>> value_observed("C/C(=C\\COP(=O)(O)OP(=O)(O)O)CC/C=C(\\C)CO[Si](C)(C)C(C)(C)C")
104
>>> value_observed("CC[C@@H](O)CC/C(C)=C/CC/C(C)=C/COP(=O)(O)OP(=O)(O)O [Compound of formula (E)]")
120
>>> value_observed("CCC(O)CC/C(C)=C/CC/C(C)=C/COP(=O)(O)OP(=O)(O)O [Compound of formula (R)]")
140
>>> value_observed("C/C(=C\\COP(=O)(O)OP(=O)(O)O)CC/C=C(\\C)COCc1ccccc1")
132

We now examine a further molecule.
(Q) Give the value of Relative activity reported for the following: CCCCC(OC)/C(C)=C/CC/C(C)=C/COP(=O)(O)OP(=O)(O)O (stereo not drawn)
(A) 128

====

List of Relative activity values.
- Tgt: variant enzyme L91G of undecaprenyl diphosphate synthase (Micrococcus luteus, UniProt O82827, L91G)
- Construct: made in house; host or cells: E. coli; site-directed mutagenesis of pET22b/MLU-UPS
- Sequence (O82827 whole entry L91G): as the sequence (O82827 whole entry N77A) above, with A77N, L91G counted along it
- Assay method text: Relative activity of variant enzyme L91G on initiating substrates
- Type: biochemical, Micrococcus luteus B-P 26
- Condition details: index, activity of wild-type enzyme on same initiating substrate as 100; 12.5 μM initiating substrate, 1 hour, 37° C.
// return just the number, without any unit appended

# count of solved cases: 2
>>> value_observed("CCC(O)CC/C(C)=C/CC/C(C)=C/COP(=O)(O)OP(=O)(O)O [Compound of formula (R)]")
110
>>> value_observed("CCCCC(OC)/C(C)=C/CC/C(C)=C/COP(=O)(O)OP(=O)(O)O (stereo not drawn)")
149

--- query ---
(Q) Give Relative activity for C/C(=C\COP(=O)(O)OP(=O)(O)O)CC/C=C(\C)CO[Si](C)(C)C(C)(C)C
(A) 104
